ΔTm for assorted compounds
# Test system: Nucleic Acid
# measurement-notes: Binding affinity to hairpin oligomer duplex A4GCT4 DNA (unknown origin) assessed as change in melting temperature at 2:1 drug/DNA ratio by spectrophotometry
# Assay type: nucleic-acid assay
readout-type: ΔTm (°C)

CN1CCN(c2ccc3nc(-c4ccc(OCc5cccc(COc6ccc(-c7nc8ccc(N9CCN(C)CC9)cc8[nH]7)cc6)n5)cc4)[nH]c3c2)CC1    6
N=C(N)c1ccc2nc(-c3ccc(-c4cccc(-c5ccc(-c6nc7ccc(C(=N)N)cc7[nH]6)cc5)n4)cc3)[nH]c2c1    5
N=C(N)c1ccc2nc(-c3ccc(OCc4cccc(COc5ccc(-c6nc7ccc(C(=N)N)cc7[nH]6)cc5)n4)cc3)[nH]c2c1    8

* * *

# Tested on: Nucleic Acid
# measurement-notes: Binding affinity to hairpin oligomer duplex A4T4 DNA (unknown origin) assessed as change in melting temperature at 2:1 drug/DNA ratio by spectrophotometry
# Assay type: nucleic-acid assay
readout-type: ΔTm (°C)

N=C(N)c1ccc2nc(-c3ccc(OCc4cccc(COc5ccc(-c6nc7ccc(C(=N)N)cc7[nH]6)cc5)c4)cc3)[nH]c2c1    21
N=C(N)c1ccc2nc(-c3ccc(-c4cccc(-c5ccc(-c6nc7ccc(C(=N)N)cc7[nH]6)cc5)n4)cc3)[nH]c2c1    24
CN1CCN(c2ccc3nc(-c4ccc(OCc5cccc(COc6ccc(-c7nc8ccc(N9CCN(C)CC9)cc8[nH]7)cc6)n5)cc4)[nH]c3c2)CC1    14
N=C(N)c1ccc2nc(-c3ccc(OCc4cccc(COc5ccc(-c6nc7ccc(C(=N)N)cc7[nH]6)cc5)n4)cc3)[nH]c2c1    15

* * *

# target: Nucleic Acid
# measurement-notes: Binding affinity to biotinylated-hairpin oligomer duplex A4IT4 DNA (unknown origin) by surface plasmon resonance method
# Assay type: nucleic-acid assay, Homo sapiens
readout-type: Kd (nM)

N=C(N)c1ccc2nc(-c3ccc(OCc4cccc(COc5ccc(-c6nc7ccc(C(=N)N)cc7[nH]6)cc5)n4)cc3)[nH]c2c1    1.2

* * *

# Tested on: Nucleic Acid
# measurement-notes: Binding affinity to hairpin oligomer duplex A4GT4 DNA (unknown origin) assessed as change in melting temperature at 2:1 drug/DNA ratio by spectrophotometry
# Type: nucleic-acid assay
ΔTm for assorted molecules
readout-type: ΔTm (°C)

CN1CCN(c2ccc3nc(-c4ccc(OCc5cccc(COc6ccc(-c7nc8ccc(N9CCN(C)CC9)cc8[nH]7)cc6)n5)cc4)[nH]c3c2)CC1    19
N=C(N)c1ccc2nc(-c3ccc(OCc4cccc(COc5ccc(-c6nc7ccc(C(=N)N)cc7[nH]6)cc5)c4)cc3)[nH]c2c1    17
N=C(N)c1ccc2nc(-c3ccc(OCc4cccc(COc5ccc(-c6nc7ccc(C(=N)N)cc7[nH]6)cc5)n4)cc3)[nH]c2c1    22
N=C(N)c1ccc2nc(-c3ccc(-c4cccc(-c5ccc(-c6nc7ccc(C(=N)N)cc7[nH]6)cc5)n4)cc3)[nH]c2c1    19

* * *

# target: Nucleic Acid
# measurement-notes: Binding affinity to biotinylated-hairpin oligomer duplex A4GT4 DNA (unknown origin) by surface plasmon resonance method in presence of 0.1 M Na+ ion
# Type: nucleic-acid assay, Homo sapiens
pKd: −log10 of the molar value.
readout-type: pKd

N=C(N)c1ccc2nc(-c3ccc(OCc4cccc(COc5ccc(-c6nc7ccc(C(=N)N)cc7[nH]6)cc5)n4)cc3)[nH]c2c1    10.82

Data credit: ChEMBL document CHEMBL3627638
